The following molecules are listed with their measured chromatographic logD values.
- METHOD SUMMARY: Lipophilicity (chromatographic logD)
- Type: physicochemical
- EXPERIMENTAL PARAMETERS: octanol/water, estimated from chromatographic retention; pH 3, chromatographic estimate; read-out: Distribution coefficient, pH 3 (gLogDpH 3)
Answer with a number only.

{"MOLECULE": "O=C1NCc2cc(OCCNC[C@H](O)COc3ccc4c(c3)OC[C@@H](COCC3CC3)O4)ccc21 [NDD-825]", "MEASURED ENDPOINT": "chromatographic logD", "MEAS VALUE": 1.5}

Next, consider the following molecule.
IN: Identify measured chromatographic logD associated with NC(=O)c1ccc(OCCNC[C@H](O)COc2ccc3c(c2)OC[C@@H](COCC2CC2)O3)cc1 [NDD-713]
OUT: 1.7

* * *

- METHOD SUMMARY: PK analysis in male Sprague-Dawley rats
- Type: in vivo
- EXPERIMENTAL PARAMETERS: male, Sprague-Dawley, whole blood, iv; rat, i.v. 6 mg/kg, hydrochloride salt forms; read-out: Blood CLtotal
The molecules listed here are annotated with their clearance.
Report as a plain number; the unit mL/min/kg is understood.

{"SMILES DATA": "O=C1NCc2cc(OCCNC[C@H](O)COc3ccc4c(c3)OC[C@@H](COCC3CC3)O4)ccc21", "QUANTITY UNIT": "mL/min/kg", "clearance": 42}

Read the next record carefully.
IN: State its clearance for this molecule: `NC(=O)c1ccc(OCCNC[C@H](O)COc2ccc3c(c2)OC[C@@H](COCC2CC2)O3)cc1`
OUT: 36

* * *

The reader will find reported AUC(0-t) values listed item by item below.
- METHOD SUMMARY: PK analysis in male Sprague-Dawley rats
- Assay type: in vivo
- EXPERIMENTAL PARAMETERS: male, Sprague-Dawley, plasma, po; rat, p.o. 20 mg/kg, hydrochloride salt forms
Lab book: enter the figure in µM·h, no units written.

{"SMILES DATA": "O=C1NCc2cc(OCCNC[C@H](O)COc3ccc4c(c3)OC[C@@H](COCC3CC3)O4)ccc21", "MEAS VALUE": 11.9}

Now, please, on to the next molecule.
IN: Tell me measured AUC(0-t) for `NC(=O)c1ccc(OCCNC[C@H](O)COc2ccc3c(c2)OC[C@@H](COCC2CC2)O3)cc1` please.
OUT: 6.3

* * *

- METHOD SUMMARY: PK analysis in male Sprague-Dawley rats
- Format: in vivo
- EXPERIMENTAL PARAMETERS: male, Sprague-Dawley, plasma, iv; rat, i.v. 20 mg/kg, hydrochloride salt forms
MEASURED ENDPOINT: AUC(0-t) (µM·h)
# value in µM·h; strip the unit string

{"SMILES DATA": "NC(=O)c1ccc(OCCNC[C@H](O)COc2ccc3c(c2)OC[C@@H](COCC2CC2)O3)cc1", "AUC(0-t) / µM·h": 14.7}

# evaluate next
IN: Give AUC(0-t) for `O=C1NCc2cc(OCCNC[C@H](O)COc3ccc4c(c3)OC[C@@H](COCC3CC3)O4)ccc21`
OUT: 12.1

Numbers sourced from paper PMC5471521.
